Value source: PubChem BioAssay AID2685

assay: qHTS Assay for Lipid Storage Modulators in Drosophila S3 Cells; conditions: BODIPY lipid droplet fluorescence, 18-24 h, cells fed with added oleic acid; series mostly up to 46.1 µM
Screen size: about 320,000 compounds; about 2,100 (0.66%) were called active. About 53% were inconclusive and are not listed. The call rests on the fitted dose curve; in most records, active means well fitted inhibition curve with a large enough effect in the signal ratio, with a control signal flat (not every such curve was filed as active); inconclusive means small, poorly fitted or top-dose-only effect, or effect the other way, or a change in a side signal; inactive means flat fitted curve, though single readings scatter; the % refers to the signal ratio. This is one part of a sample in which actives are shown more often than they occur.
Classes used: Y (active), N (inactive)

{"molecule": "O=C(CN1C(=O)S/C(=C/c2ccc(N3CCOCC3)cc2)C1=O)N1CCOCC1", "group label": "N"}
{"molecule": "COc1cccc(C(=O)COc2cccc(NC(=O)c3cccc([N+](=O)[O-])c3)c2)c1", "group label": "Y"}
{"molecule": "COc1ccc(OC)c(S(=O)(=O)NNC(=S)Nc2ccc3c(c2)OCO3)c1", "group label": "N"}
{"molecule": "O=C(C1CSC2(c3ccc(F)cc3)CCC(=O)N12)N1CCCCCC1 (centres undefined)", "group label": "Y"}
{"molecule": "O=c1c2ccccc2nc(SCc2nc3ccccc3s2)n1CCCO", "group label": "N"}
{"molecule": "CC(=O)Nc1ccc(/C=C(\\C#N)C(=O)NC2CCCCC2)cc1", "group label": "Y"}
{"molecule": "N=C(N)Sc1nc(N2CCCCC2)nc(N2CCCCC2)n1", "group label": "N"}
{"molecule": "Cc1ccc(-n2nc(C)c(C(=O)N3CCN(C(=O)c4ccco4)CC3)c2-n2cccc2)cc1", "group label": "Y"}
{"molecule": "CCOc1ccc(CN2CCC(=O)NC2=O)cc1", "group label": "N"}
{"molecule": "COc1ccc(OC)c(C2=NOC(C(=O)NCc3cccs3)C2)c1 (centres undefined)", "group label": "N"}
{"molecule": "CCc1nc2nc(C)c(NS(=O)(=O)c3ccc(C4CCCCC4)cc3)c(=O)n2[nH]1", "group label": "N"}
{"molecule": "COc1cccc(C(=O)COc2cccc(NC(=O)c3ccco3)c2)c1", "group label": "N"}
{"molecule": "N#C/C(=C\\c1ccccc1)C(=O)NC1CC1", "group label": "N"}
{"molecule": "COc1ccc(OC)c2sc(NC(=O)c3ccc(S(=O)(=O)N4CCOCC4)cc3)nc12", "group label": "N"}
{"molecule": "O=S(=O)(Nc1ccc(N2CCCCC2)cc1)c1ccccc1F", "group label": "N"}
{"molecule": "Cc1ccc(CN2CCN(C(=O)c3ccco3)CC2)cc1", "group label": "N"}
{"molecule": "CC(C)(C)N(Cc1ccccc1)C(=O)COC(=O)c1ccc(Br)o1", "group label": "N"}
{"molecule": "c1ccc2c(N3CCCCC3)nnc(N3CCCCC3)c2c1", "group label": "Y"}
{"molecule": "CC(=O)Oc1ccc2nc(-c3cccs3)oc(=O)c2c1", "group label": "N"}
{"molecule": "CCOc1ccc(NC(=S)NC(=O)C2CCCC2)cc1", "group label": "N"}
{"molecule": "NC(=O)c1ccccc1OCc1cccc2ccccc12", "group label": "N"}
{"molecule": "O=C(Nc1cccc([N+](=O)[O-])c1)c1ccccc1", "group label": "N"}
{"molecule": "CCOC(=O)N1CCN(CC(O)COc2ccccc2C(C)C)CC1 (centres undefined)", "group label": "N"}
{"molecule": "CC(C)=C1C2CCC1C1C(=O)N(c3nc(-c4ccc(F)cc4)c(C)s3)C(=O)C21 (centres undefined)", "group label": "N"}
{"molecule": "CC1(O)CC(=O)N(c2ccccc2)O1 (centres undefined)", "group label": "N"}
{"molecule": "O=C(COC(=O)C1CSC2(c3ccc(F)cc3)CCC(=O)N12)NC(=O)NC1CCCC1 (centres undefined)", "group label": "N"}
{"molecule": "CCOC(=O)N1CCN(CC(O)COc2ccccc2C(C)CC)CC1 (centres undefined)", "group label": "Y"}
{"molecule": "CN(C)C(=O)NC(Nc1ccc(Cl)cc1Cl)C(Cl)(Cl)Cl (centres undefined)", "group label": "N"}
{"molecule": "COc1ccccc1COC(=O)c1ccc(S(=O)(=O)N2CCOCC2)cc1", "group label": "N"}
{"molecule": "COc1cccc(-n2c(SCC(=O)OC(C)C)nnc2-c2cccnc2)c1", "group label": "N"}
{"molecule": "CCOCCCn1c(SCC(=O)NC(C)(C)C)nc2ccccc2c1=O", "group label": "N"}
{"molecule": "O=C(Cc1ccccc1)N/N=C/c1ccc[nH]1", "group label": "N"}
{"molecule": "CCC(=O)Nc1cccc(NC(=O)c2cccc([N+](=O)[O-])c2)c1", "group label": "N"}
{"molecule": "COc1ccc(NC(=O)c2cccc([N+](=O)[O-])c2)cc1", "group label": "N"}
{"molecule": "O=C(CN1C(=O)NC2(CCCC2)C1=O)Nc1cc(S(=O)(=O)N2CCOCC2)ccc1OCC(F)(F)F", "group label": "N"}
{"molecule": "CCOCCCn1c(SCc2nc3ccccc3s2)nc2ccccc2c1=O", "group label": "Y"}
{"molecule": "CC(C)N1C(=O)N(c2ccccc2)C(C)(O)CC1(C)C (centres undefined)", "group label": "N"}
{"molecule": "CC[C@@H](C)[C@@H](C(=O)N1CCN(C(=O)OC(C)(C)C)CC1)n1cc(CCCN=C(NC(=O)OC(C)(C)C)NC(=O)OC(C)(C)C)nn1", "group label": "N"}
{"molecule": "O=S(=O)(c1ccccc1)N1CCN(S(=O)(=O)c2ccc(F)cc2)CC1", "group label": "N"}
{"molecule": "Nc1nc(/C=C/c2cccnc2)nc(-c2ccccc2O)n1", "group label": "N"}
{"molecule": "COCCn1nnnc1C(c1ccc(OC)cc1)N1CCN(C(=O)c2ccco2)CC1 (centres undefined)", "group label": "N"}
{"molecule": "Cc1ccc(-n2ncc(C(=O)N3CCN(C(=O)c4ccco4)CC3)c2-n2cccc2)cc1", "group label": "N"}
{"molecule": "COc1ccccc1NS(=O)(=O)c1cccc(C(=O)N2CCN(C/C=C/c3ccccc3)CC2)c1", "group label": "N"}
{"molecule": "COc1ccc(C(c2nnnn2C(C)(C)C)N2CCN(C(=O)c3ccco3)CC2)cc1 (centres undefined)", "group label": "N"}
